assay: Inhibition of human ABCB1 expressed in KBV1 cells assessed as potentiation of doxorubicin-induced cytotoxicity by measuring doxorubicin IC50 at 1000 nM after 72 hrs by MTT assay (Rvb = 5.07 +/- 0.19 uM)
quantity measured: pIC50
Keep it numeric: pIC50 is minus log10 of the concentration in mol/L.

Lab note: measured pIC50 of COc1cc2c(cc1OC)CN(CCc1ccc(NC(=O)c3cc(OC)c(OC)cc3NC(=O)c3cnc4ccccc4c3)cc1)CC2 was 7.15

---

assay: Inhibition of human ABCB1 transfected in HEK293 cells assessed as potentiation of doxorubicin-induced cytotoxicity by measuring doxorubicin IC50 at 50 nM after 72 hrs by CCK8 assay (Rvb = 504.65 +/- 44.94 nM)
quantity measured: IC50 (µM)
Quick note: give the figure in µM, leave out the unit.

Lab note: measured IC50 of COc1ccc2cc1Oc1ccc(cc1)C[C@H]1c3cc(c(OC)cc3CCN1C)Oc1c(OC)c(OC)c(OC)c3c1[C@H](C2)N(C)CC3 [CHEBI:5677] was 0.109

---

test: Inhibition of human ABCB1 expressed in KBV1 cells assessed as potentiation of vincristine-induced cytotoxicity by measuring vincristine IC50 at 200 nM after 72 hrs by MTT assay (Rvb = 277.68 +/- 56.61 nM)
quantity measured: IC50 (nM)
Quick note: give the figure in nM, leave out the unit.

Lab note: measured IC50 of COc1ccc2cc1Oc1ccc(cc1)C[C@H]1c3cc(c(OC)cc3CCN1C)Oc1c(OC)c(OC)c(OC)c3c1[C@H](C2)N(C)CC3 was 21

---

test: Inhibition of human ABCB1 transfected in HEK293 cells assessed as potentiation of doxorubicin-induced cytotoxicity by measuring doxorubicin IC50 at 1000 nM after 72 hrs by CCK8 assay (Rvb = 504.65 +/- 44.94 nM)
quantity measured: IC50 (nM)
Quick note: give the figure in nM, leave out the unit.

Lab note: measured IC50 of COc1cc2c(cc1OC)CN(CCc1ccc(NC(=O)c3cc(OC)c(OC)cc3NC(=O)c3cnc4ccccc4c3)cc1)CC2 was 25

---

assay: Inhibition of human ABCB1 expressed in NCI-ADR-RES cells assessed as potentiation of colchicine-induced cytotoxicity by measuring colchicine IC50 at 50 nM after 72 hrs by MTT assay (Rvb = 1607.50 +/- 497.42 nM)
quantity measured: IC50 (µM)
Quick note: give the figure in µM, leave out the unit.

Lab note: measured IC50 of COc1ccc2cc1Oc1ccc(cc1)C[C@H]1c3cc(c(OC)cc3CCN1C)Oc1c(OC)c(OC)c(OC)c3c1[C@H](C2)N(C)CC3 was 1.01

---

assay: Inhibition of human ABCB1 transfected in HEK293 cells assessed as potentiation of doxorubicin-induced cytotoxicity by measuring doxorubicin IC50 at 100 nM after 72 hrs by CCK8 assay (Rvb = 504.65 +/- 44.94 nM)
quantity measured: pIC50
Keep it numeric: pIC50 is minus log10 of the concentration in mol/L.

Lab note: measured pIC50 of COc1ccc2cc1Oc1ccc(cc1)C[C@H]1c3cc(c(OC)cc3CCN1C)Oc1c(OC)c(OC)c(OC)c3c1[C@H](C2)N(C)CC3 [CHEBI:5677] was 7.12

---

assay: Inhibition of human ABCB1 expressed in NCI-ADR-RES cells assessed as potentiation of doxorubicin-induced cytotoxicity by measuring doxorubicin IC50 at 200 nM after 72 hrs by MTT assay (Rvb = 5.54 +/- 0.60 uM)
quantity measured: pIC50
Keep it numeric: pIC50 is minus log10 of the concentration in mol/L.

Lab note: measured pIC50 of COc1ccc2cc1Oc1ccc(cc1)C[C@H]1c3cc(c(OC)cc3CCN1C)Oc1c(OC)c(OC)c(OC)c3c1[C@H](C2)N(C)CC3 was 6.26
